- method description: Oral plasma bioavailability
- Format: in vivo
- details: rat, 6 mg/kg, study not given, oral 6 mg/kg vs i.v. 2 mg/kg, conscious rats
- Protocol: Oral Bioavailability: Comparison of the disappearance of compound from plasma following oral (6 mg/kg) and intravenous (2 mg/kg) administration in conscious rats. Parent compound in plasma was measured at multiple time points following administration using HPLC methodology. Bioavailability is expressed as a percentage of the drug in plasma following oral administration compared to that following intravenous administration.
measured property: bioavailability (%)
API: value field is a number in %; no unit string.

Enquiry: Fill blank: measured bioavailability of the molecule CCCN1CCCC2c3c(cccc3C(N)=O)CCC21 (single isomer, unassigned) [Compound 5] is ____.
Return: 86

---

- method description: Oral plasma bioavailability
- Type: in vivo
- details: rat, 6 mg/kg, Study 1, oral 6 mg/kg vs i.v. 2 mg/kg, conscious rats
measured property: bioavailability (%)
# unit: % | format: bare number

Enquiry: Request the reported bioavailability associated with CCCN1CC[C@H]2c3c(cccc3C(N)=O)CC[C@H]21 (racemic)
Return: 59

---

- measured target: 5-hydroxytryptamine (5-HT1A) receptor (Bos taurus)
- Sequence (F6Q2H9 1-422): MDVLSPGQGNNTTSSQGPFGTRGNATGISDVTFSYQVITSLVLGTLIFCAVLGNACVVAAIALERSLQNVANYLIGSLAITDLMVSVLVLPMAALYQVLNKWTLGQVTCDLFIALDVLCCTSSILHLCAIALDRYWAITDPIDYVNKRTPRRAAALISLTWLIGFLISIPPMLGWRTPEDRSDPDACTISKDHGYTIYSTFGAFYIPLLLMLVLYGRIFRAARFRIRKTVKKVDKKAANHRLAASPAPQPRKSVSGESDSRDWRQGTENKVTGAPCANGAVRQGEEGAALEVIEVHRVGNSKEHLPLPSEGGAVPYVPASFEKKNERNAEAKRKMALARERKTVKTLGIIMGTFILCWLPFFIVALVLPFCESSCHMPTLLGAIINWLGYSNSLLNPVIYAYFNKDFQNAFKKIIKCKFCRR
- method description: Inhibition of 8-OH-DPAT binding in a bovine brain homogenate
- details: read-out: Binding at the 5-HT1A receptor site, IC50
measured property: IC50 (nM)
A number alone suffices; assume nM.

Enquiry: 5-hydroxytryptamine (5-HT1A) receptor (Bos taurus) / IC50 / CCCN1CCCC2c3c(cccc3C(N)=O)CCC21 (single isomer, unassigned) [Compound 5] : value?
Return: 1.5

Enquiry: Thanks! And CCCN1CC[C@H]2c3c(cccc3C(N)=O)CC[C@H]21 (racemic) [Compound 1] ?
Return: 5.2

Enquiry: Subsequent entry: CCCN1CCCC2c3c(cccc3C(N)=O)CCC21 (racemic) [Compound 4]
Return: 3.7

Enquiry: Input CCCN1CCC2c3c(cccc3C(N)=O)CCC21 (single isomer, unassigned)
Return: 533

Enquiry: Repeat for the following molecule: CCCN1CC[C@H]2c3c(cccc3C(N)=O)CC[C@H]21 (single isomer, unassigned) [Compound 2]
Return: 10.2

---

Known clearance of a selection of compounds
- method description: Pharmacokinetics following constant infusion (steady state clearance)
- details: plasma, iv; after 12 hour infusion (300 µg/hour), anesthetized rat; read-out: In vivo steady state clearance
Numbers only; they are read as mL/min/kg.

Enquiry: Quick check: clearance of CCCN1CCCC2c3c(cccc3C(N)=O)CCC21 (single isomer, unassigned) ?
Return: 43

Enquiry: Consider next the compound CCCN1CC[C@H]2c3c(cccc3C(N)=O)CC[C@H]21 (racemic) in the same way.
Return: 58
